Molecular target: muscarinic (M1) receptors (Rattus norvegicus, UniProt P08482)
Construct: Cerebral cortical membranes were prepared by differential centrifugation; from tissue; host or cells: rat cerebral cortex membranes
Sequence (P08482 1-460): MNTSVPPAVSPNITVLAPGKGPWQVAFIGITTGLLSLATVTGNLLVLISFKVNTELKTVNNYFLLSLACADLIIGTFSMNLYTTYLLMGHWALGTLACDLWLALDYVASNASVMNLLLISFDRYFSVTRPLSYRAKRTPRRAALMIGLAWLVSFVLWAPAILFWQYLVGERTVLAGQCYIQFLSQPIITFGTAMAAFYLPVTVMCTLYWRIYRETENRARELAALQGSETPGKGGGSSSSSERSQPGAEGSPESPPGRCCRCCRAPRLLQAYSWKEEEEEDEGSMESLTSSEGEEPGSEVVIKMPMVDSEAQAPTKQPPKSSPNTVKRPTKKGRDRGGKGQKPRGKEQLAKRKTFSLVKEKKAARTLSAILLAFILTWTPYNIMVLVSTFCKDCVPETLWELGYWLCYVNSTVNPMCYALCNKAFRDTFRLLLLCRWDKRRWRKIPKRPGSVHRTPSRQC
Test: In vitro [3H]-pirenzepine binding (muscarinic M1, rat cerebral cortical membranes)
Design: species or system rat (male Sprague-Dawley)
Details: inhibition of 3H-pirenzepine binding, rat cerebral cortical membranes; read-out: Radioligand binding data (IC50, nM) M1
Description: In vitro Binding Methods for [3H]-pirenzepine Binding For in vitro 3H-pirenzepine binding, male Sprague-Dawley (Harlan Sprague Dawley, Indianapolis, Ind.) rats weighing 100-150 gm were sacrificed by decapitation, the brains were quickly removed, and the cerebral cortex was dissected from the brain. […] Radioactivity trapped on the filters was determined by liquid, scintillation spectrometry. Nonspecific binding was determined using 1 uM atropine. […]
Structures can show the parent of a compound that is named as a salt.
Assign IC50 to each entry below.
Just the number in nM, nothing appended.

(Q) Given the compound `CCCN(CCC)[C@H]1CCc2cccc(-c3ccno3)c2C1` , what is its reported IC50?
(A) 180

(Q) Given the compound CCCN(CCC)C1CCc2cccc(-c3cc(SC)no3)c2C1 (stereo not drawn) [Example 7, maleate] , what is its reported IC50?
(A) 173

(Q) Given the compound CCCN(CCC)C1CCc2cccc(-c3cc(-c4ccccc4)no3)c2C1 (stereo not drawn) [Example 6, hydrobromide] , what is its reported IC50?
(A) 750

Just for reference, patent US5434174A is where these values come from.
